Recorded values, source the supplement of paper PMC8617591.

System: Mycobacterium tuberculosis Erdman (autoluminescent)
Experiment: GRinf, maximum normalised growth rate inhibition (three-drug combination) (unitless (-1 to 1)); higher = less effect (negative = killing)
Conditions: in vitro model: cholesterol-high 0.2 mM; time point: constant (~7 days, model-specific)
measurement.label: GRinf

Request: Reported GRinf for CC(C)/N=c1\cc2n(-c3ccc(Cl)cc3)c3ccccc3nc-2cc1Nc1ccc(Cl)cc1 [clofazimine] + CC(=O)NC[C@H]1CN(c2ccc(N3CCOCC3)c(F)c2)C(=O)O1 [linezolid] + COc1c(N2C[C@@H]3CCCN[C@@H]3C2)c(F)cc2c(=O)c(C(=O)O)cn(C3CC3)c12 [moxifloxacin] : what is it?
Result: -1

Request: What do you have for COc1nc2ccc(Br)cc2cc1[C@@H](c1ccccc1)[C@@](O)(CCN(C)C)c1cccc2ccccc12 [bedaquiline] + CC(=O)NC[C@H]1CN(c2ccc(N3CCOCC3)c(F)c2)C(=O)O1 [linezolid] + NC(=O)c1cnccn1 [pyrazinamide] ?
Result: -0.577

---

I'd appreciate it if you could supply AUC25 values for the items below.
Tested on: Mycobacterium tuberculosis Erdman (autoluminescent)
Experiment: AUC25, normalised area under dose response up to IC25 (fraction (0-1)); higher = more potent at low dose
Conditions: in vitro model: acidic pH 5.7; time point: terminal (~4-5 doublings, model-specific)
Answer using only a numeral; do not append any unit.

Request: Reported AUC25 for COc1nc2ccc(Br)cc2cc1[C@@H](c1ccccc1)[C@@](O)(CCN(C)C)c1cccc2ccccc12 [bedaquiline] + COc1c(N2C[C@@H]3CCCN[C@@H]3C2)c(F)cc2c(=O)c(C(=O)O)cn(C3CC3)c12 [moxifloxacin] : what is it?
Result: 0.0707

Request: What do you have for CC(C)/N=c1\cc2n(-c3ccc(Cl)cc3)c3ccccc3nc-2cc1Nc1ccc(Cl)cc1 [clofazimine] + O=[N+]([O-])c1cn2c(n1)OC[C@@H](OCc1ccc(OC(F)(F)F)cc1)C2 [pretomanid] ?
Result: 0.108

Request: What do you have for COc1c(N2C[C@@H]3CCCN[C@@H]3C2)c(F)cc2c(=O)c(C(=O)O)cn(C3CC3)c12 [moxifloxacin] + CO[C@H]1/C=C/O[C@@]2(C)Oc3c(C)c(O)c4c(O)c(c(/C=N/N5CCN(C6CCCC6)CC5)c(O)c4c3C2=O)NC(=O)/C(C)=C\C=C\[C@H](C)[C@H](O)[C@@H](C)[C@@H](O)[C@@H](C)[C@H](OC(C)=O)[C@@H]1C [rifapentine] ?
Result: 0.0544

Request: What do you have for COc1nc2ccc(Br)cc2cc1[C@@H](c1ccccc1)[C@@](O)(CCN(C)C)c1cccc2ccccc12 [bedaquiline] + CC(=O)NC[C@H]1CN(c2ccc(N3CCOCC3)c(F)c2)C(=O)O1 [linezolid] ?
Result: 0.0907

Request: What do you have for CC(=O)NC[C@H]1CN(c2ccc(N3CCOCC3)c(F)c2)C(=O)O1 [linezolid] + NC(=O)c1cnccn1 [pyrazinamide] ?
Result: 0.0982

---

I'd appreciate it if you could supply Einf values for the items below.
System: Mycobacterium tuberculosis Erdman (autoluminescent)
Assay: Einf, fitted maximum growth inhibition of three-drug combination (fraction); higher = stronger maximal inhibition
Settings: in vitro model: butyrate; time point: constant (~7 days, model-specific)
Answer using only a numeral; do not append any unit.

Request: # returns recorded Einf (system: Mycobacterium tuberculosis Erdman (autoluminescent)) for NNC(=O)c1ccncc1 [isoniazid] + CC(=O)NC[C@H]1CN(c2ccc(N3CCOCC3)c(F)c2)C(=O)O1 [linezolid] + CO[C@H]1/C=C/O[C@@]2(C)Oc3c(C)c(O)c4c(O)c(c(/C=N/N5CCN(C6CCCC6)CC5)c(O)c4c3C2=O)NC(=O)/C(C)=C\C=C\[C@H](C)[C@H](O)[C@@H](C)[C@@H](O)[C@@H](C)[C@H](OC(C)=O)[C@@H]1C [rifapentine]
Result: 0.894

Request: What do you have for CC(C)/N=c1\cc2n(-c3ccc(Cl)cc3)c3ccccc3nc-2cc1Nc1ccc(Cl)cc1 [clofazimine] + CC[C@@H](CO)NCCN[C@@H](CC)CO [ethambutol] + CO[C@H]1/C=C/O[C@@]2(C)Oc3c(C)c(O)c4c(O)c(c(/C=N/N5CCN(C6CCCC6)CC5)c(O)c4c3C2=O)NC(=O)/C(C)=C\C=C\[C@H](C)[C@H](O)[C@@H](C)[C@@H](O)[C@@H](C)[C@H](OC(C)=O)[C@@H]1C [rifapentine] ?
Result: 0.942
